# EXPERIMENT: Pharmacokinetic study in rats after oral administration of N. incisum extract (HPLC-FLD of plasma)
# Assay type: in vivo, Sprague–Dawley rats
# MEASUREMENT_SETUP: male, Sprague-Dawley, rat, in vivo, po, 4.2 g/kg, T 1/2

{"SMILES_INPUT": "CC(C)=CCOc1c2occc2cc2ccc(=O)oc12", "half-life": "≤ 6 h"}

---

# EXPERIMENT: Pharmacokinetic study in rats after oral administration of N. incisum extract (HPLC-FLD of plasma)
# Format: in vivo, Sprague–Dawley rats
# MEASUREMENT_SETUP: male, Sprague-Dawley, rat, in vivo, po, 4.2 g/kg
# Method: HPLC analysis was performed on an Agilent 1100 HPLC (Agilent Technologies, USA) equipped with a quaternary pump, a degasser, an autosampler, a column thermostat compartment, and a diode array detector (DAD). An Agilent fluorescence detector was coupled to the Agilent system. Separation was carried out with a Hedera ODS column (4.6 mm × 250 mm, 5 μm) by gradient elution at a temperature of 40°C. Excitation and emission of the fluorescence detector were set to 300 nm and 490 nm, respectively. […]
MEASUREMENT_NAME: AUC(0-t) (ng·h/mL)

{"SMILES_INPUT": "CC(C)=CCOc1c2occc2cc2ccc(=O)oc12", "MEASUREMENT_NAME": "AUC(0-t)", "OBSERVED_VALUE": 11000}

---

# EXPERIMENT: Pharmacokinetic study in rats after oral administration of N. incisum extract (HPLC-FLD of plasma)
# Assay type: in vivo, Sprague–Dawley rats
# MEASUREMENT_SETUP: male, Sprague-Dawley; rat plasma, oral 4.2 g kg^−1 N. incisum extract; read-out: total drug exposure in rats in over 24 h, AUC0–24

{"MOLECULE": "CC(C)=CC(O)C/C(C)=C/COc1c2ccoc2cc2oc(=O)ccc12 (stereo not drawn)", "UNIT_TAG": "ng·h/mL", "AUC(0-t)": 102}
{"MOLECULE": "CC(C)=CCOc1c2ccoc2cc2oc(=O)ccc12", "UNIT_TAG": "ng·h/mL", "AUC(0-t)": 830}
{"MOLECULE": "COc1c2ccoc2cc2oc(=O)ccc12", "UNIT_TAG": "ng·h/mL", "AUC(0-t)": 1640}

---

# EXPERIMENT: Pharmacokinetic study in rats after oral administration of N. incisum extract (HPLC-FLD of plasma)
# Format: in vivo, Sprague–Dawley rats
# MEASUREMENT_SETUP: male, Sprague-Dawley, rat, in vivo, po, 4.2 g/kg
MEASUREMENT_NAME: Cmax

{"SMILES_INPUT": "CC(C)=CCOc1c2occc2cc2ccc(=O)oc12", "OBSERVED_VALUE": "1670 ng/mL"}

---

half-life: recorded values
# EXPERIMENT: Pharmacokinetic study in rats after oral administration of N. incisum extract (HPLC-FLD of plasma)
# Type: in vivo, Sprague–Dawley rats
# MEASUREMENT_SETUP: male, Sprague-Dawley, rat, plasma, po, 4.2 g/kg, rat plasma, oral 4.2 g kg^−1 N. incisum extract, n = 8, mean ± SD; read-out: T 1/2 (converted)

{"COMPOUND": "CC(C)=CC(O)C/C(C)=C/COc1c2ccoc2cc2oc(=O)ccc12 (stereo not drawn)", "half-life": "≤ 6 h"}
{"COMPOUND": "CC(C)=CCOc1c2ccoc2cc2oc(=O)ccc12", "half-life": "≤ 6 h"}
{"COMPOUND": "COc1c2ccoc2cc2oc(=O)ccc12", "half-life": "12 h"}
